- experimental_system: D-3-phosphoglycerate dehydrogenase (Homo sapiens)
- Sequence (O43175 whole entry): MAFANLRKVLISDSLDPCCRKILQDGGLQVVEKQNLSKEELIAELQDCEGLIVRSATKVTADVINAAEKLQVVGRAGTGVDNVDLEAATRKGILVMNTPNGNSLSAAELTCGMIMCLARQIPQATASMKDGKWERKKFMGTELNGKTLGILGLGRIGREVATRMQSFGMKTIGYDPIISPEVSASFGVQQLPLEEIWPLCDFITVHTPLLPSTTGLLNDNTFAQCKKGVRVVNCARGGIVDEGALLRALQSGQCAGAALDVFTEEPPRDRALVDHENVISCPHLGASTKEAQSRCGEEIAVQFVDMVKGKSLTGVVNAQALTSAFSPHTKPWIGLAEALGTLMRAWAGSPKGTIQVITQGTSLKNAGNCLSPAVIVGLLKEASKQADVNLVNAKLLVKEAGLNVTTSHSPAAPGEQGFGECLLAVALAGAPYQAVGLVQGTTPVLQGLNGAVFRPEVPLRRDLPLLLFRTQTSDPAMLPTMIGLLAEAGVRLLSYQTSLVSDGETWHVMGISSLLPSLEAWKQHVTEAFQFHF
- measurement_notes: Inhibition of PHGDH (unknown origin) using 140 nM of PHGDH and 3-PG as substrate incubated for 20 mins in presence of NAD+, PSAT1, PSPH by diaphorase and resazurin dye based fluorescence assay
reported_metric: IC50 (nM)
Lab book: enter the figure in nM, no units written.

Recorded IC50 of COc1cc2c(cc1Cl)cc(C(=O)NC(CO)c1ccc(C(=O)O)cc1)n2C (stereo unspecified) , please.
235

Recorded IC50 of Cn1c(C(=O)NC2(c3ccc([C@H](O)c4cccnc4)cc3)COC2)cc2c(Cl)c(Cl)ccc21 , please.
990

Recorded IC50 of COc1cc2c(cc1Cl)cc(C(=O)N[C@H](C)c1ccc(C(=O)O)cc1)n2C , please.
235

Recorded IC50 of COc1cc2c(cc1Cl)cc(C(=O)NC(CN)c1ccc(C(=O)O)cc1)n2C (stereo unspecified) , please.
23400

Recorded IC50 of Cn1c(C(=O)NC2(c3ccc(CO)cc3)COC2)cc2c(Cl)c(Cl)ccc21 , please.
1580

Recorded IC50 of CCOC(=O)C(c1ccc(C2(NC(=O)c3cc4c(Cl)c(Cl)ccc4n3C)COC2)cc1)c1cccnc1 (stereo unspecified) , please.
1330

Recorded IC50 of Cn1c(C(=O)NC2(c3ccc([C@@H](O)c4cccnc4)cc3)COC2)cc2c(Cl)c(Cl)ccc21 , please.
370

Recorded IC50 of Cn1c(CNC2(c3ccc(C(=O)O)cc3)COC2)cc2c(Cl)c(Cl)ccc21 , please.
209000

Recorded IC50 of CONC(=O)Cc1ccc(C2(NC(=O)c3cc4c(Cl)c(Cl)ccc4n3C)COC2)cc1 , please.
287

Recorded IC50 of Cn1c(C(=O)NC2(c3ccc(C(=O)O)nc3)COC2)cc2c(Cl)c(Cl)ccc21 , please.
22000

Recorded IC50 of CC(=O)OC(C)OC(=O)C(c1ccc(C2(NC(=O)c3cc4c(Cl)c(Cl)ccc4n3C)COC2)cc1)c1cccnc1 (stereo unspecified) , please.
1460
